Assignment: determine reported pKd for the given binders.
# target: DLG1_2, Q12959
# Sequence (Q12959 314-412): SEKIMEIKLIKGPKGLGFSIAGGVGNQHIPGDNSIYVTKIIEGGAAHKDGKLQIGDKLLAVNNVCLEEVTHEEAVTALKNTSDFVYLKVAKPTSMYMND
# experimental details: holdup assay
# Design: key: below the threshold = too weak to quantify, mostly under pKd 3.1 to 4
# experimental setup: plain residues with an end cap or a label only (N-terminal biotin on a linker: ahx)
Would you mind answering with just the numeric figure?

For the binder APSRKLNTEI [TIAM1, Q13009] , what pKd is on record?
3.97

For the binder TQKFRASTAL [FRMPD1, Q5SYB0] , what pKd is on record?
3.62

For the binder HTHSYIETHV [CNKSR2, Q8WXI2] , what pKd is on record?
5.1

For the binder QPRTWLQSPV [RTKN, Q9BST9] , what pKd is on record?
4.3

For the binder QNTDDVQTSF [ACE2, Q9BYF1] , what pKd is on record?
3.54

For the binder QDEKVKESYV [ABCA1, O95477] , what pKd is on record?
5.09
